Each recorded value in this set is attributed to the supplement of paper PMC12042874.

- assay-text: amyloid nucleation score (Sup35N fusion, yeast selection) (log enrichment); library NNK3; higher = more nucleation; inactive = no reads after selection;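 also: zero at mode of non-aggregating sequences after 7 days selection at 30°C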

- substance: "CFTVVPGSVMF"
  amyloid nucleation score: "inactive"
- substance: "SHIFCSFFKSSYLNSGWQHG"
  amyloid nucleation score: "inactive"
- substance: "FWYFYSKEFTRQDLVDLNVM"
  amyloid nucleation score: "inactive"
- substance: "VNDVLIRKCLAMESNVNEAI"
  amyloid nucleation score: "inactive"
- substance: "GLMLYTSMVGSYDDWPD"
  amyloid nucleation score: "inactive"
- substance: "TTMRCEIKSLYWIISQCWLD"
  amyloid nucleation score: "inactive"
- substance: "LQMYWIIV"
  amyloid nucleation score: "inactive"
- substance: "FLVNEEPVQLHGAPVRYFKF"
  amyloid nucleation score: -0.504
- substance: "NSFDGTYVYTYLPSELSTFP"
  amyloid nucleation score: "inactive"
- substance: "MIFKKDSLGMILHFHHYFYN"
  amyloid nucleation score: "inactive"
- substance: "STVTDTYRLDTWTTWETDRG"
  amyloid nucleation score: 1.98
- substance: "LYMYLGRVCMWHLRCHKRYN"
  amyloid nucleation score: "inactive"
- substance: "CTSESVSYNMDRTKCQMYLT"
  amyloid nucleation score: "inactive"
- substance: "KSMIAGVTMWLLCTVSLSYN"
  amyloid nucleation score: "inactive"
- substance: "KGSVMTCDSYTCFMLNSEVL"
  amyloid nucleation score: 1.47
- substance: "SCVPWICWNCQVPGL"
  amyloid nucleation score: 0.881
- substance: "GSTCSDLLALYPWYVRIKEI"
  amyloid nucleation score: "inactive"
- substance: "TFCFPWL"
  amyloid nucleation score: "inactive"
- substance: "KGGDELYFEELDEWSQGSRR"
  amyloid nucleation score: "inactive"
- substance: "YEDQRSLRFCR"
  amyloid nucleation score: "inactive"
- substance: "YLLSMSENMRLALIECVAV"
  amyloid nucleation score: "inactive"
- substance: "MLKPIMLILKSLEFVLEESS"
  amyloid nucleation score: 0.985
- substance: "NGGIERLSWVRVWFRHTFQS"
  amyloid nucleation score: "inactive"
- substance: "MVVRDDKIWIAFRCLYDCCV"
  amyloid nucleation score: "inactive"
- substance: "RDFTSYGCFVASSSLDRSFL"
  amyloid nucleation score: "inactive"
- substance: "QFTGHINRDVNM"
  amyloid nucleation score: "inactive"
- substance: "AVMWYIPRDG"
  amyloid nucleation score: "inactive"
- substance: "LYLYSWFC"
  amyloid nucleation score: "inactive"
- substance: "KNERVWVSRWETFKLHCSRV"
  amyloid nucleation score: "inactive"
- substance: "NCVRFFYASDLSNYTRA"
  amyloid nucleation score: "inactive"
- substance: "KSMYWLYCTEWEHSNMHVFM"
  amyloid nucleation score: 0.17
- substance: "QWTSFLVLCCTNPRLGSSRV"
  amyloid nucleation score: 2.67
- substance: "YVSQQYCWPGFFHRVHTGKS"
  amyloid nucleation score: "inactive"
- substance: "WDLGASYLTGMFWVRIVGLE"
  amyloid nucleation score: "inactive"
- substance: "YFCGAVEESERLRGMEGNPD"
  amyloid nucleation score: 0.84
- substance: "SHGGYACTSLIMTLIPLLYM"
  amyloid nucleation score: "inactive"
- substance: "VDEFFGRGVHWLTVRLGLGM"
  amyloid nucleation score: "inactive"
- substance: "GFAYESQAA"
  amyloid nucleation score: "inactive"
- substance: "FQYKVSFPDRRASQKRWPLP"
  amyloid nucleation score: "inactive"
- substance: "SYRLSYLYPSTHHYLLNCLL"
  amyloid nucleation score: "inactive"
- substance: "LRFRAQNTYEGPYTVGPVWS"
  amyloid nucleation score: "inactive"
- substance: "VKLRPLCAVKIRRYLYVVRE"
  amyloid nucleation score: -0.054
- substance: "YALVVR"
  amyloid nucleation score: "inactive"
- substance: "AVMDGRNMSYSMYIRCCMWL"
  amyloid nucleation score: 2.7
- substance: "RWSILDGHHNVVLSVPSKS"
  amyloid nucleation score: "inactive"
- substance: "SVGFVHFVNTGDQKYERRVD"
  amyloid nucleation score: "inactive"
- substance: "MWWAINCWSSKFHIYSIDTY"
  amyloid nucleation score: "inactive"
- substance: "GVFERR"
  amyloid nucleation score: "inactive"
- substance: "FKSSVKGEGYGKMGFQLLPF"
  amyloid nucleation score: "inactive"
- substance: "SSKLFL"
  amyloid nucleation score: "inactive"
- substance: "RWLFRSWPGRRMA"
  amyloid nucleation score: "inactive"
- substance: "LWCCEYRNRAATMRVPDPEL"
  amyloid nucleation score: "inactive"
- substance: "RHGLCFTIEAVPPPFIRWHW"
  amyloid nucleation score: -0.662
- substance: "WTDNSVFLTVVINDIRTSTS"
  amyloid nucleation score: 2.56
- substance: "SISYINRKHTRNDTPRLRGV"
  amyloid nucleation score: "inactive"
- substance: "LSTIIHDFIGCCAVNAQLIG"
  amyloid nucleation score: "inactive"
- substance: "FRRYRRCDLGLLSSMRPSAH"
  amyloid nucleation score: "inactive"
- substance: "DDLIGSIFKFLVLSRGKT"
  amyloid nucleation score: "inactive"
- substance: "FYSCKSTAGCSTTIEGARNY"
  amyloid nucleation score: "inactive"
- substance: "PNPYGNGIITWKN"
  amyloid nucleation score: "inactive"
- substance: "RRKKQFFFLFFSHRNLFFPV"
  amyloid nucleation score: 2.18
- substance: "YQRYGRGFLRVSSFSLDSRM"
  amyloid nucleation score: -0.352
- substance: "PNRNYVCGMSCYGAVVSELR"
  amyloid nucleation score: "inactive"
- substance: "LCRLLVSTWNSASSFFCRKL"
  amyloid nucleation score: "inactive"
- substance: "NRKSRSYTLFLV"
  amyloid nucleation score: "inactive"
- substance: "FNSKRW"
  amyloid nucleation score: "inactive"
- substance: "TFFFVVGHSNDEVYSCVKTV"
  amyloid nucleation score: 1.12
- substance: "LCVRYDMSEGLRKGWWYGVG"
  amyloid nucleation score: "inactive"
- substance: "EGSYVYIKDYI"
  amyloid nucleation score: "inactive"
- substance: "NYLVYSCDVRYSYMVSELAS"
  amyloid nucleation score: "inactive"
- substance: "RCDKIWQASVMGSDIRDL"
  amyloid nucleation score: "inactive"

---

- assay-text: amyloid nucleation score (Sup35N fusion, yeast selection) (log enrichment); library NNK3; higher = more nucleation; inactive = no reads after selection

- substance: "YSLRNNFLLVFSLVSDRPIG"
  amyloid nucleation score: 1.06
- substance: "IVSYSGRNRDAHLKSS"
  amyloid nucleation score: "inactive"
- substance: "YDLRAALKV"
  amyloid nucleation score: "inactive"
- substance: "RMPRQGLWMRVF"
  amyloid nucleation score: "inactive"
- substance: "RDDMGLESKQDGEP"
  amyloid nucleation score: "inactive"
- substance: "TLIHGGFTYLDQWKDETCPQ"
  amyloid nucleation score: "inactive"
- substance: "SHPYLT"
  amyloid nucleation score: 0.071
- substance: "RAMLLGFSCMVWVPWGQFGK"
  amyloid nucleation score: 0.649
- substance: "DRAFYYTLKYLRD"
  amyloid nucleation score: "inactive"

---

- assay-text: amyloid nucleation score (Sup35N fusion, yeast selection) (log enrichment); library NNK3; higher = more nucleation; inactive = no reads after selection
attribute-measured: amyloid nucleation score

- substance: "TCHDGHGAGRTVSGVFGGVA"
  result: "inactive"
- substance: "TCKVVCRFFHIRACMLGVIL"
  result: "inactive"
- substance: "LFNYLFLVP"
  result: "inactive"
- substance: "PNLMLPCTSGRELMKVSNVL"
  result: "inactive"
- substance: "VDNIVVVCCFKDNCLSKG"
  result: 1.85
- substance: "LVCFARVRKMEAEAFMKLVW"
  result: 0.64
- substance: "SRFRFMGNVRQFLQPYRRLH"
  result: 0.347
- substance: "DETVMFSFKFIVKSVVVDPR"
  result: "inactive"
- substance: "IPSNHSINRCYLDIWAQFLG"
  result: "inactive"
- substance: "CVYFGRVNFTVGLLPSLNGF"
  result: 1.46
- substance: "VHFKRVEKG"
  result: "inactive"
- substance: "GWYLYIVTG"
  result: "inactive"
- substance: "SNAKWGNISVGSRDYRTIRS"
  result: 1.48
- substance: "CSRSAENNFMMNLLNTIRVL"
  result: "inactive"
- substance: "GVISVFWMLWYLYPSLL"
  result: "inactive"
- substance: "DSGSHNDCNGCSNY"
  result: "inactive"
- substance: "SYMISPAVGKDRDM"
  result: "inactive"
- substance: "VIALDVNL"
  result: "inactive"
- substance: "QGEHRHLCDLSLSEG"
  result: "inactive"
- substance: "SKVRICKDKGWSG"
  result: "inactive"
- substance: "MVVTKLRRDVISQSRISMGW"
  result: 1.07
- substance: "VRDIRAIL"
  result: -0.551
- substance: "RLTACASYIGINGRSRN"
  result: "inactive"
- substance: "GPYHELCNHRL"
  result: "inactive"
- substance: "VCTPNRCLSTLSR"
  result: "inactive"
- substance: "GMRSSLNIDAFGSGAELMHW"
  result: "inactive"
- substance: "DINCSWTLQNGRGTLSE"
  result: "inactive"
- substance: "YDKWSRSMYVKLCLGAALSW"
  result: "inactive"
- substance: "DILTMCEYDSDNNVGNLCYS"
  result: "inactive"
- substance: "GSLRNPVSGRLENVGGRAWG"
  result: "inactive"
- substance: "NWFCRGVIELPHPYAQTNFS"
  result: "inactive"
- substance: "HSSLNGRNG"
  result: "inactive"
- substance: "SALPVTSCFFTTMCGTVIID"
  result: "inactive"
- substance: "MDVWASYMTVSESVCSSLVR"
  result: "inactive"
- substance: "THTTAS"
  result: "inactive"
- substance: "TGLNGLRVLYSMRRPGKV"
  result: "inactive"
- substance: "DICLSYIFLL"
  result: 0.84
